These data points were gathered from PubChem BioAssay (NCI).

Listing: growth of selected molecules
- System: SR leukemia
- Experimental Details: NCI-60 one-dose screen, 48 h (100 = growth as untreated, 0 = no growth, -100 = all killed)
- Experimental Setup: 10 µM unless noted
The panel holds about 83,000 compounds, 20% with a hit somewhere; the sample as a whole holds those more often.
Measured Metric: growth (%)

INSERT INTO assay_data (chemical_structure, measured_metric, reported) VALUES
  ('CCOC(=N)c1ccc(C(=N)OCC)cc1', 'growth', 91.7),
  ('OCCCc1ccccc1', 'growth', 132),
  ('Cc1cccc(Cl)c1N', 'growth', 98.9),
  ('NCCSSC/C=C\CSSCCN', 'growth', 107),
  ('CCN(CC)C(=S)SCCO', 'growth', 92.5);
